As shown below, each of these molecules has a reported Ratio Ki value.
Assay: Selectivity for guinea pig brain sigma 1 receptor to rat liver sigma 2 receptor
Would you mind answering with just the numeric figure?

COc1ccc(CN2C[C@H]3CC[C@@H](OC)[C@@H]2CN3Cc2ccccc2)cc1    11
COc1ccc(CN2C[C@H]3CC[C@H](O)[C@@H]2CN3Cc2ccccc2)cc1    227
COc1ccc(CN2C[C@H]3CC[C@H](OC)[C@@H]2CN3Cc2ccccc2)cc1    9
COc1ccc(CN2C[C@H]3CC[C@@H](O)[C@@H]2CN3Cc2ccccc2)cc1    4

Name the reported Ratio Ki value associated with the molecule COc1ccc(CN2C[C@@H]3CC[C@H](OC)[C@H]2CN3Cc2ccccc2)cc1 13

Name the reported Ratio Ki value associated with the molecule COc1ccc(CN2C[C@@H]3CC[C@H](O)[C@H]2CN3Cc2ccccc2)cc1 6

Name the reported Ratio Ki value associated with the molecule COc1ccc(CN2C[C@@H]3CC[C@@H](O)[C@H]2CN3Cc2ccccc2)cc1 124

Name the reported Ratio Ki value associated with the molecule COc1ccc(CN2C[C@@H]3CC[C@@H](OC)[C@H]2CN3Cc2ccccc2)cc1 22

====

Biological target: Sigma non-opioid intracellular receptor 1 (Cavia porcellus, UniProt Q60492)
Sequence (Q60492 whole entry): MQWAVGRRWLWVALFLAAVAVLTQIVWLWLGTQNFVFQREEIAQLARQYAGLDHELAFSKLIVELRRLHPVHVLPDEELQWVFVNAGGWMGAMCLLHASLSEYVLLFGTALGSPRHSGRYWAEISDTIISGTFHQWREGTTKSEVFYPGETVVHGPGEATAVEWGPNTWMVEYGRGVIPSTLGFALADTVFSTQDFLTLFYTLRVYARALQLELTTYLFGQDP
Assay: Displacement of [3H](+)-pentazocine from sigma 1 receptor in guinea pig brain membrane
measureName: log10(Ki) (log10 of the value in nM)
Each number you see is log10 of Ki, and the unit inside the log is nM.

COc1ccc(CN2C[C@H]3CC[C@H](OC)[C@@H]2CN3Cc2ccccc2)cc1    2.41
COc1ccc(CN2C[C@@H]3CC[C@@H](OC)[C@H]2CN3Cc2ccccc2)cc1    1.41
COc1ccc(CN2C[C@@H]3CC[C@@H](O)[C@H]2CN3Cc2ccccc2)cc1    0.81
COc1ccc(CN2C[C@H]3CC[C@@H](OC)[C@@H]2CN3Cc2ccccc2)cc1    2.10
COc1ccc(CN2C[C@H]3CC[C@H](O)[C@@H]2CN3Cc2ccccc2)cc1    0.88

Form field: log10(Ki) recorded for COc1ccc(CN2C[C@@H]3CC[C@H](OC)[C@H]2CN3Cc2ccccc2)cc1 with Sigma non-opioid intracellular receptor 1 (Cavia porcellus, UniProt Q60492) (enter value) 1.40

Form field: log10(Ki) recorded for COc1ccc(CN2C[C@@H]3CC[C@H](O)[C@H]2CN3Cc2ccccc2)cc1 with Sigma non-opioid intracellular receptor 1 (Cavia porcellus, UniProt Q60492) (enter value) 2.10

Form field: log10(Ki) recorded for COc1ccc(CN2C[C@H]3CC[C@@H](O)[C@@H]2CN3Cc2ccccc2)cc1 with Sigma non-opioid intracellular receptor 1 (Cavia porcellus, UniProt Q60492) (enter value) 2.07
